- System: HeLa
- Experiment Summary: Cytotoxicity against human HeLa cells assessed as cell death at 200 uM by […]
- Type: cell-based
Readout Kind: Activity

May I ask what Activity has been recorded for `COc1cc(/C=C/C(=O)N[C@@H](COC(=O)c2ccccc2)C(=O)NC2CCCCC2)cc(OC)c1` ? < 20%

Item: `COc1cc(/C=C/C(=O)N[C@@H](COC(=O)c2ccccc2)C(=O)NC2CCCCC2)cc(OC)c1OC` < 20%

And then `O=C(/C=C/c1ccccc1)N[C@@H](COC(=O)c1ccccc1)C(=O)NC1CCCCC1` , what is it? < 20%

Same read-out for `COc1cccc(/C=C/C(=O)N[C@@H](COC(=O)c2ccccc2)C(=O)NC2CCCCC2)c1` ? < 20%

Then `O=C(/C=C/c1ccc(OC(=O)c2ccccc2)cc1)N[C@@H](COC(=O)c1ccccc1)C(=O)NC1CCCCC1` ? < 20%
